Hi there, I'd appreciate the recorded EC50 for every entry that follows.
# tgt: LXRβ (Homo sapiens)
# Sequence (P55055 whole entry, the tested form may be a part): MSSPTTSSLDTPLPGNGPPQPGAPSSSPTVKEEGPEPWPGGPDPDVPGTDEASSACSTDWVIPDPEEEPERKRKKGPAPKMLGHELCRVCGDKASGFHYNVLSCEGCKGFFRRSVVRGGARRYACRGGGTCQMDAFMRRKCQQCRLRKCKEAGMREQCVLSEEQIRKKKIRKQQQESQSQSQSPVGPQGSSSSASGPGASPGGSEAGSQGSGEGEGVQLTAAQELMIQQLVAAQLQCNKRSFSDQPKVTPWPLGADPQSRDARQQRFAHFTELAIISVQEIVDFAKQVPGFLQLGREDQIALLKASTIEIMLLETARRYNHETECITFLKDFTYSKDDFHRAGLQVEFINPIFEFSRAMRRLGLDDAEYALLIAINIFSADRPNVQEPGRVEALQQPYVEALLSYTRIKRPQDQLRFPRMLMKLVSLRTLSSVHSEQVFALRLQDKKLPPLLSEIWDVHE
# protocol.description: LXR Gal4 reporter transient transfection assay (mammalian two-hybrid, HEK293), LXRβ
# Format: cell-based
# Design: LXRβ (amino acids 156-461); expressed in transfected cells; host or cells: HEK293
# assay.conditions: full length (FL) LXRβ, HEK293; read-out: FL-M2H Gal4β

Using the record for N#CC1=C(c2c(-c3cccc(-c4ccc(C(=O)O)cc4Cl)c3)n(S(=O)(=O)c3ccc(C(F)F)cc3)c3ccc(F)cc23)CCCC1 , report its EC50.
100 to 1000 nM

// same read-out, input: N#Cc1sccc1-c1c(-c2cccc(-c3ccc(C(=O)O)cc3Cl)c2)n(S(=O)(=O)c2ccc(F)cc2)c2ccc(F)cc12
< 100 nM

// same read-out, input: N#Cc1ccccc1-c1c(-c2cccc(-c3ccc(C(=O)O)c(O)c3Cl)c2)n(S(=O)(=O)c2ccc(C(F)F)cc2)c2ccc(F)cc12
< 100 nM

// same read-out, input: N#Cc1cccc(C#N)c1-c1c(-c2cccc(-c3ccc(C(=O)O)cc3Cl)c2)n(S(=O)(=O)c2ccc(Cl)cc2)c2ccc(F)cc12
< 100 nM

// same read-out, input: Cc1ccc(S(=O)(=O)n2c(-c3cccc(-c4ccc(C(=O)O)cc4)c3)c(-c3ccsc3C#N)c3cc(F)ccc32)cc1
< 100 nM

// same read-out, input: CC(O)(C(=O)O)c1ccc(-c2cccc(-c3c(-c4c(C#N)cccc4C#N)c4cc(F)ccc4n3S(=O)(=O)c3ccc(C(F)F)cc3)c2)cc1 (centres unmarked)
< 100 nM

// same read-out, input: Cc1ccc(S(=O)(=O)n2c(-c3cc(N4CC(C(=O)O)C4)ccc3F)c(-c3ccsc3C#N)c3cc(F)ccc32)cc1
< 100 nM

// same read-out, input: COc1c(C(=O)O)ccc(-c2cccc(-c3c(-c4ccsc4C#N)c4cc(F)ccc4n3S(=O)(=O)c3ccc(C)cc3)c2)c1Cl
< 100 nM

// same read-out, input: COc1cccnc1-c1c(-c2cccc(-c3ccc(C(=O)O)cc3Cl)c2)n(S(=O)(=O)c2ccc(C(F)F)cc2)c2ccc(F)cc12
< 100 nM

// same read-out, input: O=C(O)c1ccc(-c2cccc(-c3c(-c4ccccc4)c4cc(F)ccc4n3S(=O)(=O)c3ccc(C(F)F)cc3)c2)c(Cl)c1
< 100 nM

// same read-out, input: Cc1ccc(S(=O)(=O)n2c(-c3cccc(C4CC(C(=O)O)C4)c3)c(-c3ccsc3C#N)c3cc(F)ccc32)cc1 (centres unmarked)
< 100 nM

// same read-out, input: Cc1ccc(S(=O)(=O)n2c(-c3cccc(N4CC(C(=O)O)C4)c3)c(-c3ccccc3C3COC3)c3cc(F)ccc32)cc1
100 to 1000 nM

// same read-out, input: Cc1ccc(S(=O)(=O)n2c(-c3cccc(-c4ccc(C(=O)O)cc4Cl)c3)c(-c3cccc(C)c3C#N)c3cc(F)ccc32)cc1
< 100 nM

// same read-out, input: Cc1ccc(S(=O)(=O)n2c(-c3cc(N4CC(C(=O)O)C4)ccc3Cl)c(-c3ccsc3C#N)c3cc(F)ccc32)cc1
< 100 nM

// same read-out, input: N#Cc1cccc(F)c1-c1c(-c2cccc(-c3ccc(C(=O)O)cc3Cl)c2)n(S(=O)(=O)c2ccc(C(F)F)cc2)c2ccc(F)cc12
< 100 nM

// same read-out, input: Cc1ccc(S(=O)(=O)n2c(-c3cccc(-c4ccc(C(=O)NS(C)(=O)=O)cc4Cl)c3)c(-c3ccsc3C#N)c3cc(F)ccc32)cc1
< 100 nM

// same read-out, input: N#Cc1sccc1-c1c(-c2cccc(N3CC(C(=O)O)C3)c2)n(S(=O)(=O)c2ccc(C(F)(F)F)cc2)c2ccc(F)cc12
< 100 nM

// same read-out, input: N#Cc1sccc1-c1c(-c2cccc(N3CC(C(=O)O)C3)c2)n(S(=O)(=O)c2ccc3c(c2)CCC3)c2ccc(F)cc12
< 100 nM

// same read-out, input: O=C(O)c1ccc(-c2cccc(-c3c(-c4ccccc4C4COC4)c4cc(F)ccc4n3S(=O)(=O)c3ccc(C(F)F)cc3)c2)c(Cl)c1
< 100 nM

// same read-out, input: Cc1ccc(S(=O)(=O)n2c(-c3cccc(-c4ccc(-c5nnn[nH]5)cc4Cl)c3)c(-c3ccsc3C#N)c3cc(F)ccc32)cc1
< 100 nM

// same read-out, input: Cc1ccc(S(=O)(=O)n2c(-c3cccc(-c4ccc(C(=O)O)cc4Cl)c3)c(-c3cccc(F)c3C#N)c3cc(F)ccc32)cc1
< 100 nM

// same read-out, input: Cc1ccc(S(=O)(=O)n2c(-c3cccc(C45CC(C(=O)O)(C4)C5)c3)c(-c3ccsc3C#N)c3ccccc32)cc1
100 to 1000 nM

// same read-out, input: Cn1cccc(-c2c(-c3cccc(-c4ccc(C(=O)O)cc4Cl)c3)n(S(=O)(=O)c3ccc(C(F)F)cc3)c3ccc(F)cc23)c1=O
100 to 1000 nM

// same read-out, input: Cc1ccc(S(=O)(=O)n2c(-c3cccc(N4CC(C(=O)O)C4)c3)c(-c3ccsc3C=O)c3cc(F)ccc32)cc1
100 to 1000 nM

// same read-out, input: N#Cc1cccc(C#N)c1-c1c(-c2cccc(-c3ccc(C(=O)O)cc3Cl)c2)n(S(=O)(=O)c2ccc(C(F)F)cc2)c2cnc(O)cc12
100 to 1000 nM

// same read-out, input: N#Cc1sccc1-c1c(-c2cccc(-c3cc(F)c(C(=O)O)cc3Cl)c2)n(S(=O)(=O)c2ccc(C(F)F)cc2)c2ccc(F)cc12
< 100 nM

###

# protocol.description: Phase 1 study, SAD cohorts: plasma pharmacokinetics
# Assay type: in vivo, human
# assay.conditions: both sexes, human, oral, Day 1, 20 mg, plasma, median
measured.attribute: Tmax (h)
API: value field is a number in h; no unit string.

Using the record for N#Cc1cccc(C#N)c1-c1c(-c2cccc(-c3ccc(C(=O)NCC(=O)O)cc3Cl)c2)n(S(=O)(=O)c2ccc(C(F)F)cc2)c2ccc(F)cc12 , report its Tmax.
2.5

###

# tgt: GST-LXRβ ligand-binding domain (Homo sapiens)
# Construct: amino acids 156-461; NP009052
# Sequence (P55055 156-460 limits assumed): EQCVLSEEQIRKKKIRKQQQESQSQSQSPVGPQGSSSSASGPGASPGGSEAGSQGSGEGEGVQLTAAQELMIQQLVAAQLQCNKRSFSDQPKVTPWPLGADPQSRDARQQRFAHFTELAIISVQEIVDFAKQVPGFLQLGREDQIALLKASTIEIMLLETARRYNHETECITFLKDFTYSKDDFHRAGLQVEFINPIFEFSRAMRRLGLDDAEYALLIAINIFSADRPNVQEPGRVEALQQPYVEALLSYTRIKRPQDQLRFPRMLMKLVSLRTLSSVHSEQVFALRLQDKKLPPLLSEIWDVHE
# protocol.description: TR-FRETβ activity assay (NCoA3 coactivator peptide recruitment)
# assay.conditions: 1 μM 24(S)-25-epoxycholesterol prestimulation
Hi there, I'd appreciate the recorded EC50 for every entry that follows.

State its EC50 on GST-LXRβ ligand-binding domain (Homo sapiens): Cc1ccc(S(=O)(=O)n2c(-c3cccc(-c4ccc(C(=O)O)cc4Cl)c3)c(-c3ccsc3C#N)c3cc(F)ccc32)cc1
100 to 1000 nM

// same read-out, input: N#Cc1ccccc1-c1c(-c2cccc(-c3ccc(C(=O)O)cc3Cl)c2)n(S(=O)(=O)c2ccc(C(F)F)cc2)c2ccc(F)cc12
< 100 nM

// same read-out, input: COc1sccc1-c1c(-c2cccc(N3CC(C(=O)O)C3)c2)n(S(=O)(=O)c2ccc(C)cc2)c2ccc(F)cc12
1000 to 10000 nM

// same read-out, input: N#Cc1sccc1-c1c(-c2cccc(N3CC(C(=O)O)C3)n2)n(S(=O)(=O)c2ccc(Cl)cc2)c2ccccc12
1000 to 10000 nM

// same read-out, input: Cc1ccc(S(=O)(=O)n2c(-c3cccc(-n4ccc(C(=O)O)cc4=O)c3)c(-c3ccsc3C#N)c3cc(F)ccc32)cc1
100 to 1000 nM

// same read-out, input: N#Cc1cccc(C#N)c1-c1c(-c2cccc(-c3ccc(C(=O)O)cc3Cl)c2)n(S(=O)(=O)c2ccc(C(F)F)cc2)c2ccccc12
< 100 nM

// same read-out, input: N#Cc1sccc1-c1c(-c2cccc(-c3ccc(C(=O)O)cc3Cl)c2)n(S(=O)(=O)c2ccc(C(F)(F)F)nc2)c2ccc(F)cc12
100 to 1000 nM

###

# protocol.description: Short term HFD mouse model: plasma and liver exposure
# Assay type: in vivo
# assay.conditions: HFD mice, three oral doses of 10 mg/kg over two days, 4 h after final dose
measured.attribute: liver exposure 4 h

Consider the worked cases shown below.
# molecular.string, experimental.value
measured = [
    ("N#Cc1cccc(C#N)c1-c1c(-c2cccc(-c3c(F)cc(CC(=O)O)cc3F)c2)n(S(=O)(=O)c2ccc(C(F)F)cc2)c2ccc(F)cc12", "B (300 nM to ≤1 μM)"),
    ("N#Cc1cccc(C#N)c1-c1c(-c2cccc(-c3ccc(C(=O)O)cc3Cl)c2)n(S(=O)(=O)C2CCC(F)(F)CC2)c2ccc(F)cc12", "C (1 μM to ≤10 μM)"),
    ("N#Cc1cccc(C#N)c1-c1c(-c2cccc(-c3ccc(C(=O)O)cc3F)c2)n(S(=O)(=O)c2ccc(C(F)F)cc2)c2ccc(F)cc12", "C (1 μM to ≤10 μM)"),
    ("N#Cc1cccc(C#N)c1-c1c(-c2cccc(-c3ccc(C(=O)O)cc3Cl)c2)n(S(=O)(=O)c2ccc(C(F)(F)F)nc2)c2ccc(F)cc12", "C (1 μM to ≤10 μM)"),
]

Using the record for CS(=O)(=O)NC(=O)c1ccc(-c2cccc(-c3c(-c4c(C#N)cccc4C#N)c4cc(F)ccc4n3S(=O)(=O)c3ccc(C(F)F)cc3)c2)c(Cl)c1 , report its liver exposure 4 h.
B (300 nM to ≤1 μM)
